The measured values listed here are drawn from paper PMC10019194.

Target: complex I and III (NADH:cytochrome c reductase) (Echinococcus multilocularis, UniProt Q9TE80)
Sequence (Q9TE80 entry or part of it): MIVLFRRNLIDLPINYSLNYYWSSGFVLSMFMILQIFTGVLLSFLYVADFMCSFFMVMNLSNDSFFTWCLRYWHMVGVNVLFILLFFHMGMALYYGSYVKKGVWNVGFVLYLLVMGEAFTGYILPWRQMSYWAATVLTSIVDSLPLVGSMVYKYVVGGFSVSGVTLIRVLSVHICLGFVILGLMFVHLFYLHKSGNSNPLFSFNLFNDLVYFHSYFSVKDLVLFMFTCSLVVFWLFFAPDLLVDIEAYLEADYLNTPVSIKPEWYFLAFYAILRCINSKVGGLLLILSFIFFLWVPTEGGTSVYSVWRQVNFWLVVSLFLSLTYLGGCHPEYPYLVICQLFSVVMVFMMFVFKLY
Sequence (Q9GP40 whole entry, further chain): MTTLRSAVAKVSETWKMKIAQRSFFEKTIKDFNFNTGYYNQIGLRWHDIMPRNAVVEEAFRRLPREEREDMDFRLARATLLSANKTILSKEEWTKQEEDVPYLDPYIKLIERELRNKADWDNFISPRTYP
Sequence (Q9TE76 entry or part of it, further chain): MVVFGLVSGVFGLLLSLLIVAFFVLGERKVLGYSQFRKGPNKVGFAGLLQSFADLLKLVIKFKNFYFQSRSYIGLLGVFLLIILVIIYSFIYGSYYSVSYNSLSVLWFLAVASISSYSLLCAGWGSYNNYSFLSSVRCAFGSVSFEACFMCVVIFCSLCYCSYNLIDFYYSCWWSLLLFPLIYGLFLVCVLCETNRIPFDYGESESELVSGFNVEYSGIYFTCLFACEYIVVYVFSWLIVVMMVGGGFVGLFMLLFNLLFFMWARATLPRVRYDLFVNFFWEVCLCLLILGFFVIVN
Assay: NADH:cytochrome c reductase activity (complex I to III) in protoscoleces mitochondrial fraction
Assay type: biochemical
Conditions: E. multilocularis protoscoleces mitochondria; mean ± SEM; Table 1; read-out: IC50 NADH:cytochrome c reductase (complex I and III)
IC50: recorded values

- COMPOUND: "CC(C)=CCC/C(C)=C/CC/C(C)=C/Cc1c(O)c(Cl)c(C)c(C=O)c1O [Compound D2]"
  IC50: "8 nM"
- COMPOUND: "CC(C)=CCC/C(C)=C/CC/C(C)=C/Cc1c(O)c(Cl)cc(C=O)c1O [Compound D1]"
  IC50: "274 nM"
- COMPOUND: "CC(=O)c1c(C)c(Cl)c(O)c(C/C=C(\\C)CC/C=C(\\C)CCC=C(C)C)c1O"
  IC50: "14 nM"
- COMPOUND: "CC(=O)c1cc(Cl)c(O)c(C/C=C(\\C)CCC=C(C)C)c1O"
  IC50: "221 nM"
- COMPOUND: "CC(=O)c1cc(Cl)c(O)c(C/C=C(\\C)CC/C=C(\\C)CCC=C(C)C)c1O"
  IC50: "109 nM"

###

Biological target: complex II (succinate:quinone reductase, SQR) (Echinococcus multilocularis, UniProt A0A1Z4EAW8+A0A1Z4EAX0+A0A1Z4EAX1)
Sequence (A0A1Z4EAV8 entry or part of it): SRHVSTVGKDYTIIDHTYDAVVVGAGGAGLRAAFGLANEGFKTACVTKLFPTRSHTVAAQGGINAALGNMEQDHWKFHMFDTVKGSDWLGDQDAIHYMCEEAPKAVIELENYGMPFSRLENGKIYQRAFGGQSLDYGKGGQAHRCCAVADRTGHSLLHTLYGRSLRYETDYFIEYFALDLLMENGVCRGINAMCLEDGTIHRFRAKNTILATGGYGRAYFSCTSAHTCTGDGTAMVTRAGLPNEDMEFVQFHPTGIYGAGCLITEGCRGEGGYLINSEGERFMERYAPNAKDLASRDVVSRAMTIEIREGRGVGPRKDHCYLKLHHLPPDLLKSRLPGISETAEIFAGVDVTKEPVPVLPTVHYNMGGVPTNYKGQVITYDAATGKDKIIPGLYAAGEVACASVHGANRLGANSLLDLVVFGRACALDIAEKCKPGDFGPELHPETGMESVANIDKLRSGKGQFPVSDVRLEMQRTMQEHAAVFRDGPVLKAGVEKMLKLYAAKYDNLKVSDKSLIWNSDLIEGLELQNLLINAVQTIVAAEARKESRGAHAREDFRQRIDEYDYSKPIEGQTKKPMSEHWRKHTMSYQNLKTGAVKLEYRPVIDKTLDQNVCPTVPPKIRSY
Sequence (A0A1Z4EAX1 entry or part of it): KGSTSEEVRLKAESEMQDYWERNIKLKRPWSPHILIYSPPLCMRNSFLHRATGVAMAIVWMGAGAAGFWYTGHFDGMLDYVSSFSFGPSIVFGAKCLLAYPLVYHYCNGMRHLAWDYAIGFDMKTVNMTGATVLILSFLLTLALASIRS
Sequence (A0A1Z4EAX0 entry or part of it): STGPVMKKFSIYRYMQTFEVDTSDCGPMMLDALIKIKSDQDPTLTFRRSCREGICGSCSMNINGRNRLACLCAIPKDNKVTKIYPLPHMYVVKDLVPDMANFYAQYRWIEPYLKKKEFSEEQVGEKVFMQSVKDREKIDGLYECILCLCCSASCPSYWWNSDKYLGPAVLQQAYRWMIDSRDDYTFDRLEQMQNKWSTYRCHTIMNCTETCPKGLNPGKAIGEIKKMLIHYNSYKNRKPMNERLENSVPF
Sequence (A0A1Z4EAW8 entry or part of it): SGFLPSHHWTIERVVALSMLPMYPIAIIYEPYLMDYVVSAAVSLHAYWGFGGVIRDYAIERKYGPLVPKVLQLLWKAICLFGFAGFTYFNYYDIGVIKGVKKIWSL
Assay: Succinate:quinone reductase (SQR) activity (complex II) in protoscoleces mitochondrial fraction
Type: biochemical
Conditions: read-out: IC50, E. multilocularis SQR inhibition; Table 5, furanone ring-substituted derivatives; mean ± SEM

- COMPOUND: "C/C(=C\\Cc1c(O)c(Cl)c(C)c(C=O)c1O)CC/C=C(\\C)C(C)O (stereo not shown)"
  UOM: "µM"
  IC50: 3.77

###

Target: complex II (succinate:quinone reductase, SQR) (Echinococcus multilocularis, UniProt A0A1Z4EAW8+A0A1Z4EAX0+A0A1Z4EAX1)
Assay: Succinate:quinone reductase (SQR) activity (complex II) in protoscoleces mitochondrial fraction
Assay type: biochemical
Details: IC50 against E. multilocularis complex II (SQR), figure legends, supplement
pIC50: −log10 of the molar value.

- MOLECULE: "O=C1C(O)=C([C@H]2CC[C@H](c3ccc(Cl)cc3)CC2)C(=O)c2ccccc21 [ATV, Atovaquone, reference compound]"
  pIC50: 6.16
- MOLECULE: "CC(C)=CCC/C(C)=C/CC/C(C)=C/Cc1c(O)c(Cl)c(C)c(C=O)c1O [Compound D2]"
  pIC50: 6.52
- MOLECULE: "C#CCOC/C(C)=C/CC/C(C)=C/Cc1c(O)c(Cl)c(C)c(C=O)c1O [Compound D16]"
  pIC50: 6.60
- MOLECULE: "C/C(=C\\Cc1c(O)c(Cl)c(C)c(C=O)c1O)CC/C=C(\\C)COC(=O)C(C)(C)C [Compound D17]"
  pIC50: 6.32

###

Target: complex I and III (NADH:cytochrome c reductase) (Echinococcus multilocularis, UniProt Q9TE80)
Assay: NADH:cytochrome c reductase activity (complex I to III) in protoscoleces mitochondrial fraction
Format: biochemical
Details: read-out: IC50 NADH:cytochrome c reductase (complex I and III); E. multilocularis protoscoleces mitochondria; mean ± SEM; Table 1
PROPERTY_LABEL: IC50

- MOLECULE: "C/C(=C\\Cc1c(O)c(Cl)c(C)c(C=O)c1O)CC/C=C(\\C)[C@@H]1CC(=O)C(C)(C)O1 [AF, Ascofuranone]"
  RESULT: "57 nM"
